OD450 for assorted binders
# SYSTEM_TESTED: T1, human LILRB1 recombinant protein (human, UniProt Q8NHL6 24-461)
# T1 construct: The ELISA method says only 'LILRB1 recombinant proteins' coated on plates; also called leukocyte immunoglobulin-like receptor subfamily B member 1
# ASSAY_OVERVIEW: ELISA, B cell supernatant
Numbers only; they are read as OD450.

Known OD450 results, listed for orientation:
BINDER | UNIT_DESCRIPTOR | RECORDED_NUMBER
mAb of B cell clone 176 (supernatant) (antibody, V domains shown, rabbit) VH: QSLEESEGGLVKPGGTLTLTCTASGFSFSSSYCMCWVRQAPGKGLELIACIYTDSSGATYYASWAKGRFTISKSSSTTITLQMTSLTAADTATYFCARGWDYEDPGYTDTTYFSLWGPGTLVTVSS VL: ELDLTQTPSSVEAAVGGTVTIKCQASQTIYTNLAWYQQKPGQPPNLLIYAASTLASGVSSRFKGSGSGTEFTLTISDLECADAATYYCQSYYGSSTTGNGFGGGTEVEIK | OD450 | 2.06
mAb of B cell clone 178 (supernatant) (antibody, V domains shown, rabbit) VH: QKQLVESGGGLVQPEGSLALTCTASGFSFSSSYWICWVRQAPGKGLEWIACIYAGSSGSTYYASWVNGRFTVFKTSSTTVTLQMTSLTAADTATYFCARGGTSYRLDLWGPGTLVTVSS VL: ELVLTQTPSSKSVAVGDTVTINCQASDNVYSNNYTSWFQQKPGQPPKQLLYYAAYRASGVPSRFKGSGSGTEFTLSISDVVCDDAATYYCSGHKDYSDDGSTFGGGTEVEIK | OD450 | 1.81

Please fill in: OD450 reported for mAb of B cell clone 220 (supernatant) (antibody, V domains shown, rabbit; also called B1-#220) VH: QSVEESGGGLVQPEGSLTLTCTASGFSFSGIVYMCWVRQAPGKGLEWIACAFVGSGGSTYYATWATGRFTISKTSSTTVTLQMTSLTAADTATYFCAKSYNYNGLGLWGPGTLVTVSS VL: ELDMTQTPASVSAAVGGTVTIKCQASQSITNALAWYQQKPGQPPKLLIYRASTLASGVSSRFKGSGSGTEFTLTISDLECADAATYYCQCSYYGSTYFGSPFGGGTEVEIK = 2.24

Provenance of the data: patent US12723078
